Field: IC50. Provide a value for each of the molecules that follow.
# tested target: KDR kinase (Homo sapiens)
# Sequence (P35968 20-1356): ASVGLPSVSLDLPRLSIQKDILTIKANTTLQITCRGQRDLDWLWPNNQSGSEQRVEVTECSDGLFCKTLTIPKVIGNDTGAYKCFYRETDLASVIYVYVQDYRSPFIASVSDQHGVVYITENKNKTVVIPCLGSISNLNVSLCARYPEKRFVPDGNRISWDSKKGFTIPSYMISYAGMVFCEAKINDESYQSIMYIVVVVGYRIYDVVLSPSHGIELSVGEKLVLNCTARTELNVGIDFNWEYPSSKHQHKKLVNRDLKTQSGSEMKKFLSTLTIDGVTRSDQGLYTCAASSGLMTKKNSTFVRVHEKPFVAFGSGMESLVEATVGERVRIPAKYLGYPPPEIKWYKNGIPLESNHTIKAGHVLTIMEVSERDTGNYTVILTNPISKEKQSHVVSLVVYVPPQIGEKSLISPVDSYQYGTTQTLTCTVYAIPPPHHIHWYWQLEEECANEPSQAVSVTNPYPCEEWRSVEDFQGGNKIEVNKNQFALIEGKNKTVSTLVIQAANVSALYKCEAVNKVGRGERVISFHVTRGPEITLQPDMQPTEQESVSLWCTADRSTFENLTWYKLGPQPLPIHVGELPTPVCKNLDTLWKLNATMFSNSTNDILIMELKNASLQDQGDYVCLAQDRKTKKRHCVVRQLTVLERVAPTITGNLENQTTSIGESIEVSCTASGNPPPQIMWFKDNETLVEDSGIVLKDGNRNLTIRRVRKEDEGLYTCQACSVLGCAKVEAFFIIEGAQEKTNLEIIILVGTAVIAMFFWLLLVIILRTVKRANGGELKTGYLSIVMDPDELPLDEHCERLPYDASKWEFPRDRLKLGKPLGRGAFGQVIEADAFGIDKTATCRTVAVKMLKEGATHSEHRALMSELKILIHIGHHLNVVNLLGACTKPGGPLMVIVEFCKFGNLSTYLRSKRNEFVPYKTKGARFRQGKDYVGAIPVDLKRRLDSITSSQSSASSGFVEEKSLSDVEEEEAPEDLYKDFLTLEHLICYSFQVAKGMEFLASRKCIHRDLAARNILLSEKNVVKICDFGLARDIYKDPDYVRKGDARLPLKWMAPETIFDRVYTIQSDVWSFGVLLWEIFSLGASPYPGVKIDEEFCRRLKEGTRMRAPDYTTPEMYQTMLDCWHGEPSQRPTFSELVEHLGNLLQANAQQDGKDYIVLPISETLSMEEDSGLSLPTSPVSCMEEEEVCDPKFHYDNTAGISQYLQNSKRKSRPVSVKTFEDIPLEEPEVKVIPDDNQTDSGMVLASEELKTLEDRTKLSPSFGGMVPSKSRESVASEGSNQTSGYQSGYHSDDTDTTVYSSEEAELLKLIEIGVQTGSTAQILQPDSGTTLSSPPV
# test method notes: KDR AlphaScreen assay
# details: KDR IC50 (μM)

Query: Request body: readout IC50, system KDR kinase (Homo sapiens), query "CSc1nc(N)cc(-c2ccncc2NC(=O)c2nc(-c3cc(C(=O)NC(C)C)ccc3F)ccc2N)n1" . Return the value.
Response: 1 to 10 µM

Query: Which IC50 is reported with KDR kinase (Homo sapiens) for this entry: "Nc1ncc(-c2ccc(N)c(C(=O)Nc3cnccc3N3CCC[C@H](N)C3)n2)cn1" ?
Response: > 25 µM

Now for a further molecule.
Query: Hi! What's the reported IC50 for "Nc1ccc(-c2cncc(O)n2)nc1C(=O)Nc1cnccc1N1CCC[C@H](N)C1" on KDR kinase (Homo sapiens)?
Response: 1 to 10 µM

###

What IC50 was measured for each of the following?
# tested target: KDR kinase (Homo sapiens)
# test method notes: KDR AlphaScreen assay
# details: KDR IC50 (μM)

Illustrative cases are given below, each with its answer.
Query: # get_value(readout= IC50, system= KDR kinase (Homo sapiens)) for COc1ccc(-c2cnc(N)c(C(=O)Nc3cnccc3N3CCC(N)CC3)n2)cc1 [Example 367]
Response: < 1 µM

Query: Report IC50 for Cc1cnc(N)c(C(=O)Nc2ccccc2N2CCC(N)CC2)n1 [Example 378] tested on KDR kinase (Homo sapiens).
Response: > 25 µM

Query: Item Nc1ncc(-c2ccccc2Oc2ccccc2)nc1C(=O)Nc1cnccc1N1CCC(N)CC1 [Example 365] with KDR kinase (Homo sapiens) - IC50?
Response: < 1 µM

--- query ---
Query: State its IC50 on KDR kinase (Homo sapiens): Nc1nccnc1C(=O)Nc1cc(C(=O)c2ccccc2)ccc1N1CCNCC1 [Example 232]
Response: 10 to 25 µM

###

Would you kindly list IC50 for each of these compounds?
# tested target: Pim1 kinase (Homo sapiens)
# Sequence (P11309 whole entry): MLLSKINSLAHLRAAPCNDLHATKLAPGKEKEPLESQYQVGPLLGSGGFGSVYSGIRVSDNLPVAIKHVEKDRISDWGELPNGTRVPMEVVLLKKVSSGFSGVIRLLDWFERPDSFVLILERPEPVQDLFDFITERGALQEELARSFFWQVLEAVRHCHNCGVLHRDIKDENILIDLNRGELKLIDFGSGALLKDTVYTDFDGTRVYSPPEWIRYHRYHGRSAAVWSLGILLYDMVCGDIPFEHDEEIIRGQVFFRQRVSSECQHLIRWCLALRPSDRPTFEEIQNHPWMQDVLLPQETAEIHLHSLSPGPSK
# test method notes: Pim1 ATP depletion assay
# Type: biochemical
# details: Pim1 ATP depletion assay; read-out: IC50 (μM) PIM1;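 further: Luciferase-luciferin luminescence readout of residual ATP after PIM1 transfers phosphate to a peptide substrate, 40 µM ATP added, reaction run to roughly half ATP consumption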

# count of solved cases: 2
Query: Any idea what IC50 was measured for "Nc1ncc(-c2ccc(N)c(C(=O)Nc3cnccc3N3CCC[C@H](N)C3)n2)c(C(F)(F)F)n1" ?
Response: < 1 µM

Query: Given the entry "Nc1ncc(-c2ccccc2F)nc1C(=O)Nc1cc(C(=O)c2ccccc2)ccc1N1CCNCC1" , report its measured IC50.
Response: 1 to 10 µM

Here is the next item to consider.
Query: // query IC50 value for entry CC1CC(N)CN(c2ccncc2NC(=O)c2nc(-c3c(F)cccc3F)ccc2N)C1 (stereo not drawn)
Response: < 1 µM

###

# tested target: UniProt:P35968
# test method notes: KDR AlphaScreen assay
# details: KDR IC50 (μM)
parameter measured: IC50

Query: Give the measured IC50 of Nc1nccnc1C(=O)Nc1cnccc1N1CCC[C@H](N)C1 [Example 176] .
Response: 1 to 10 µM

Provide each entry's IC50 from the list below.
1. Nc1ncc(Br)nc1C(=O)Nc1ccccc1N1CCNCC1 [Example 206]
2. COc1ccc(F)c(-c2ncc(N)c(C(=O)Nc3cnccc3N3CCC[C@H](N)C3)n2)c1 [Example 549]
3. CC1(N)CCCN(c2ccncc2NC(=O)c2nc(-c3ccccc3)ncc2N)C1 (stereo not shown) [Example 261]
4. CSc1nc(N)cc(-c2ccncc2NC(=O)c2nc(-c3cc(C(=O)N(C)C)ccc3F)ccc2N)n1 [Example 535]
5. Nc1ccc(-c2c(F)cccc2F)nc1C(=O)Nc1cnccc1N1CCC[C@H](N)C1 [Example 425]
6. Nc1nccnc1C(=O)Nc1cc(C(F)(F)F)ccc1N1CCC(N)CC1 [Example 225]
7. CC(=O)NC1CCCN(c2ccncc2NC(=O)c2nc(Br)cnc2N)C1 (stereo not shown) [Example 304]

Response:
["1 to 10 µM", "10 to 25 µM", "1 to 10 µM", "10 to 25 µM", "10 to 25 µM", "> 25 µM", "< 1 µM"]

Could you tell me IC50 for each of these compounds? They are listed below.
1. CCOc1ccc(Cl)c(-c2ccc(N)c(C(=O)Nc3cnccc3N3CCC[C@H](N)C3)n2)c1 [Example 322]
2. Nc1nccnc1C(=O)Nc1[nH]c(=O)ncc1N1CCCC(N)C1 (stereo not shown) [Example 235]
3. Nc1nccnc1C(=O)Nc1cc(C(=O)c2ccccc2)ccc1N1CCCC(N)C1 (stereo not shown) [Example 231]
4. Cc1cnc(N)c(C(=O)Nc2cc(C(=O)c3ccccc3)ccc2N2CCNCC2)n1 [Example 440]
5. Cc1ccc(N2CCCC(N)C2)c(NC(=O)c2nccnc2N)c1 (stereo not shown) [Example 218]
6. Cc1ccc(NC(=O)c2nccnc2N)c(N2CCCC(N)C2)c1 (stereo not shown) [Example 229]

Response:
["> 25 µM", "10 to 25 µM", "10 to 25 µM", "1 to 10 µM", "> 25 µM", "> 25 µM"]

Give me IC50 for each of these compounds, listed below.
1. Nc1ncc(Br)nc1C(=O)Nc1ccccc1N1CCCC(N)C1 (stereo not shown) [Example 204]
2. Nc1nccnc1C(=O)Nc1[nH]c(=O)ncc1N1CCCCC1 [Example 130]
3. Nc1ncc(-c2ccccc2F)nc1C(=O)Nc1ccccc1N1CCNCC1 [Example 383]
4. COc1ccc(N2CCC(N)CC2)c(NC(=O)c2nc(-c3ccccc3)cnc2N)c1 [Example 437]
5. N[C@H]1CCCN(c2ccncc2NC(=O)c2cccc(-c3ccccc3)n2)C1 [Example 487]
6. Nc1nc(N)c(C(=O)Nc2[nH]c(=O)ncc2N2CCCCC2)nc1Cl [Example 131]
7. Nc1nc(N)c(C(=O)Nc2[nH]c(=O)ncc2N2CCCC(N)C2)nc1Cl (stereo not shown) [Example 134]

Response:
1. 1 to 10 µM
2. 1 to 10 µM
3. 1 to 10 µM
4. 1 to 10 µM
5. 10 to 25 µM
6. < 1 µM
7. 1 to 10 µM
